Parameter MIC S. aureus (MRSA) USA300: see the listing below.
- System: S. aureus
- test_description: Broth dilution MIC determination (CLSI) against S. aureus strains
- Format: cell-based
- conditions: USA300, Strain No. MP-549
- Description: Minimum inhibitory concentrations (MICs) for macrolides described herein have been determined for unique strains of S. aureus, S. pneumoniae, S. pyogenes, E. faecalis, E. coli, A. baumannii, K. pneumoniae, P. aeruginosa, and H. influenzae, including several multidrug-resistant strains, with a special focus on macrolide resistant mechanisms. Azithromycin and solithromycin were included as control compounds. CLSI standard procedures for broth dilution MIC determination were used. […]

>  <compound>
C=CCOCC1CC(N(C)C)C(O)C(OC2C(C)C(=O)C(C)C(=O)OC(CC)C3(C)OC(=O)N(CCCCn4cc(-c5cccc(N)c5)nn4)C3C(C)NCC(C)CC2(C)OC)O1 (stereo not shown)

>  <MIC S. aureus (MRSA) USA300>
>64 µg/mL

$$$$
>  <compound>
CCC1OC(=O)C(C)C(=O)C(C)C(OC2OC(C)CC(NCC(=O)O)C2O)C(C)(OC)CC(C)CNC(C)C2N(CCCCn3cc(-c4cccc(N)c4)nn3)C(=O)OC12C (stereo not shown)

>  <MIC S. aureus (MRSA) USA300>
>64 µg/mL

$$$$
>  <compound>
CCC1OC(=O)C(C)C(=O)C(C)C(OC2OC(C)CC(NCC#N)C2O)C(C)(OC)CC(C)CNC(C)C2N(CCCCn3cc(-c4cccc(N)c4)nn3)C(=O)OC12C (stereo not shown)

>  <MIC S. aureus (MRSA) USA300>
32 µg/mL

$$$$
>  <compound>
CCC1OC(=O)C(C)C(=O)C(C)C(OC2OC(C)CC(n3ccnc3)C2O)C(C)(OC)CC(C)CNC(C)C2N(CCCCn3cc(-c4cccc(N)c4)nn3)C(=O)OC12C (stereo not shown)

>  <MIC S. aureus (MRSA) USA300>
>64 µg/mL

$$$$

###

- Tested on: P. aeruginosa
- test_description: Broth dilution MIC determination (CLSI) against P. aeruginosa strains
- Format: cell-based
- conditions: Pseudomonas aeruginosa, ATCC27853; read-out: MIC P. aeruginosa ATCC27853
Each entry below lists one item and its recorded MIC value.

>  <molecule>
CC[C@H]1OC(=O)[C@H](C)C(=O)[C@H](C)[C@@H](O[C@@H]2OC(CNC(=O)CN)CC(N(C)C)C2O)[C@](C)(OC)C[C@@H](C)CN[C@H](C)[C@H]2N(CCCCn3cc(-c4cccc(N)c4)nn3)C(=O)O[C@]12C (some centres unmarked) [FSM-21878]

>  <MIC>
> 32 µg/mL

$$$$
>  <molecule>
CC[C@H]1OC(=O)[C@H](C)C(=O)[C@H](C)[C@@H](O[C@@H]2OC(CNC(=O)c3ccccn3)CC(N(C)C)C2O)[C@](C)(OC)C[C@@H](C)CN[C@H](C)[C@H]2N(CCCCn3cc(-c4cccc(N)c4)nn3)C(=O)O[C@]12C (some centres unmarked) [FSM-21887]

>  <MIC>
> 32 µg/mL

$$$$

###

- Tested on: E. faecalis
- test_description: Broth dilution MIC determination (CLSI) against E. faecalis strains
- Format: cell-based
- conditions: E. faecalis ATCC29212, strain MP-24 (Table N2)

>  <compound>
CCC1OC(=O)C(C)C(=O)C(C)C(OC2OC(C)CC(N(CCO)CCO)C2O)C(C)(OC)CC(C)CNC(C)C2N(CCCCn3cc(-c4cccc(N)c4)nn3)C(=O)OC12C (centres unmarked) [FSM-120379]

>  <MIC>
32 µg/mL

$$$$
>  <compound>
CCC1OC(=O)C(C)C(=O)C(C)C(OC2OC(C)CC(N(C)CC#N)C2O)C(C)(OC)CC(C)CNC(C)C2N(CCCCn3cc(-c4cccc(N)c4)nn3)C(=O)OC12C (centres unmarked) [FSM-120371]

>  <MIC>
4 µg/mL

$$$$
>  <compound>
CCC1OC(=O)C(C)C(=O)C(C)C(OC2OC(C)CC(NCc3cccnc3)C2O)C(C)(OC)CC(C)CNC(C)C2N(CCCCn3cc(-c4cccc(N)c4)nn3)C(=O)OC12C (centres unmarked) [FSM-120384]

>  <MIC>
32 µg/mL

$$$$
>  <compound>
CCC1OC(=O)C(C)C(=O)C(C)C(OC2OC(C)CC(N(C)Cc3cccnc3)C2O)C(C)(OC)CC(C)CNC(C)C2N(CCCCn3cc(-c4cccc(N)c4)nn3)C(=O)OC12C (centres unmarked) [FSM-120385]

>  <MIC>
1 µg/mL

$$$$
>  <compound>
CCC1OC(=O)C(C)C(=O)C(C)C(OC2OC(C)CC(N3CCOC3CO)C2O)C(C)(OC)CC(C)CNC(C)C2N(CCCCn3cc(-c4cccc(N)c4)nn3)C(=O)OC12C (centres unmarked) [FSM-120380]

>  <MIC>
64 µg/mL

$$$$
